experimental_details: qHTS assay to test for compound auto fluorescence at 590 nm (red) in HEK293 cells (AID 720679); further: on the % scale 0 is the no-effect control and ±100 the full control effect
test_parameters: red autofluorescence 540/590 nm; series mostly up to 46 µM
The source made the active and inactive calls. The call rests on the fitted dose curve; in most records, active means well fitted curve in the direction sought with a large enough effect in the repeat runs; inconclusive means weak or mixed curves; inactive means flat fitted curve, though single readings scatter.
observed_property: outcome

OCC(c1ccc(Cl)cc1)c1ccc(Cl)cc1	inactive
C[C@@H](N)C(=O)c1ccccc1	inactive
COC([CH2][Hg])CNC(=O)c1ccccc1OCC(=O)O (stereo unspecified)	inactive
CCOc1ccc2c3c1O[C@H]1[C@@H](O)C=C[C@H]4[C@@H](C2)N(C)CC[C@@]341	inactive
CCC(C)(S(=O)(=O)CC)S(=O)(=O)CC	inactive

Please look at the following compound next.
Look up outcome for this compound: CN(C)CCCCCCN(C)C (tested in a mixture with another compound)
inactive

###

experimental_details: qHTS assay to identify small molecule antagonists of the thyroid receptor (TR) signaling pathway (AID 743065); further: nearly all actives have a fitted effect of over 55% in size; further: potency means the concentration at half of the fitted maximal effect
test_parameters: GH3.TRE-Luc, T3-stimulated luciferase inhibition, 23.5 h; series mostly up to 70.3 µM
Records with an inconclusive call do not appear. Calls of active or inactive are those of the source. The call rests on the fitted dose curve; in most records, active means well fitted inhibition curve with a large enough effect in the repeat runs; inconclusive means weak or mixed curves; inactive means no such curve, though single readings can be large or run the other way.
observed_property: Potency

Look over these answered cases.
CC(N)Cc1ccc2c(c1)OCO2 (stereo unspecified)	inactive
CC1(C)S[C@@H]2[C@H](N)C(=O)N2[C@H]1C(=O)O	inactive
CN=C1CN(O)C(c2ccccc2)=c2cc(Cl)ccc2=N1	inactive
O=P(O)(O)C(Cl)(Cl)P(=O)(O)O	inactive
CCN(CC)CCO[C@H]1CC[C@@]2(C)C(=CC[C@@H]3[C@@H]2CC[C@]2(C)C(=O)CC[C@@H]32)C1	21.1 µM (active)

Please look at the following molecule next.
Look up Potency for this molecule: C[C@@H]1[C@@H]2Cc3ccc(O)cc3[C@@]1(C)CCN2CCc1ccccc1
53.8 µM (active)

###

experimental_details: qHTS assay to identify aromatase inhibitors - cell viability counter screen (AID 743084);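 further: cells stimulated with testosterone during compound exposure; on the % scale 0 is the no-effect control and ±100 the full control effect; nearly all actives have a fitted effect of over 55% in size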
test_parameters: MCF-7 aro ERE viability, CellTiter-Fluor, 24 h; series mostly up to 70.3 µM
Inconclusive results are not listed. Calls of active or inactive are those of the source. The call rests on the fitted dose curve; in most records, active means well fitted cell-killing curve with a large enough effect in the repeat runs; inconclusive means weak or mixed curves, or effect the other way; inactive means no such curve, though single readings can be large or run the other way.
Tick one outcome: active, inactive

Clc1ccc(C(Cn2ccnc2)OCc2csc3c(Cl)cccc23)c(Cl)c1 (centres undefined)	inactive

Hi, do you know how CCC1C(C)=NN=C(c2ccc(OC)c(OC)c2)c2cc(OC)c(OC)cc21 (centres undefined) came out in this test?
inactive

Thanks! And CO[C@H]1[C@@H](O)C[C@H](O[C@H]2[C@@H](O)C[C@H](O[C@H]3[C@@H](O)C[C@H](O[C@H]4CC[C@@]5(C)[C@H](CC[C@@H]6[C@@H]5C[C@@H](O)[C@]5(C)[C@@H](C7=CC(=O)OC7)CC[C@]65O)C4)O[C@@H]3C)O[C@@H]2C)O[C@@H]1C ?
inactive

Thanks! And CNC(C)C(O)c1ccc(O)cc1 (centres undefined) ?
inactive

Thanks! And C1CN(P2(N3CC3)=NP(N3CC3)(N3CC3)=NP(N3CC3)(N3CC3)=N2)CCO1 (centres undefined) ?
inactive

Thanks! And c1ccccc1 ?
inactive

Thanks! And C[C@@H]1[C@@H]2Cc3ccc(O)cc3[C@@]1(C)CCN2CCc1ccccc1 ?
inactive

Thanks! And NC1=NC(=O)N2CC12 (centres undefined) ?
inactive

###

experimental_details: qHTS assay to identify small molecule antagonists of the thyroid receptor (TR) signaling pathway (AID 743065); further: nearly all actives have a fitted effect of over 55% in size
test_parameters: GH3.TRE-Luc, T3-stimulated luciferase inhibition, 23.5 h; series mostly up to 70.3 µM
Inconclusive results are not listed. Active and inactive are the calls of the source. Calls come from the whole dose curve; as a rule, active = well fitted inhibition curve with a large enough effect in the repeat runs; inconclusive = weak or mixed curves; inactive = no such curve, though single readings can be large or run the other way.
Tick one outcome: active, inactive

Field: example entries. Status: answers known.
C[C@@H]1[C@H]2Cc3ccc(O)cc3[C@]1(C)CCN2C	active
CC(C)CCC(=O)O[C@H]1CC[C@H]2[C@@H]3CCC4=CC(=O)CC[C@]4(C)[C@H]3CC[C@]12C	active
CCCCCc1cc(O)c2c(c1)OC(C)(C)[C@@H]1CCC(C)=C[C@@H]21	active

Hi, do you know how CN[C@@]1(c2ccccc2Cl)CCCCC1=O came out in this test?
inactive

Thanks! And O=C1C=C2C=C[C@@H]3C[C@@]2(O1)[C@H]1CCCCN31 ?
active

###

target_or_system: Acetylcholinesterase (Homo sapiens)
experimental_details: Acetylcholinesterase (AChE) small molecule antagonists: colormetric cell-based qHTS assay (AID 1347395); further: on the % scale 0 is the no-effect control and ±100 the full control effect; nearly all actives have a fitted effect of over 30% in size
test_parameters: SH-SY5Y cells AChE activity, colorimetric (Ellman); series mostly up to 115 µM
Records with an inconclusive call do not appear. Calls of active or inactive are those of the source. Calls follow the shape of the full dose curve.
observed_property: activity, negative = inhibition

OC1CCCCCCCCCCC1	inactive
Cc1ccc2nc3sc(=O)sc3nc2c1	-0.0538% [at 23.6 µM] (inactive)
CC(=O)N[C@@H](Cc1ccc(O)cc1)C(=O)O	inactive
C=C(C)C1CC=C(C)CC1 (configuration not stated)	inactive

Look up activity, negative = inhibition for this molecule: CCCCCOC(=O)COc1cc(N2C(=O)C3=C(CCCC3)C2=O)c(F)cc1Cl
inactive

Thanks! And CCCC[O][Al]([O]CCCC)[O]CCCC ?
inactive

Thanks! And CC(C)=CCC[C@](C)(O)[C@@H]1CC=C(C)CC1 ?
inactive

Thanks! And O=C(Nc1ccccc1)c1cc(Cl)ccc1O ?
inactive

Thanks! And Cc1cccc(OCC(O)CNC(C)(C)C)c1C (configuration not stated) ?
inactive

###

target_or_system: Nuclear receptor subfamily 1 group I member 3 (Homo sapiens)
experimental_details: qHTS assay to identify small molecule agonists of the constitutive androstane receptor (CAR) signaling pathway (AID 1224839); further: nearly all actives have a fitted effect of over 15% in size;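 on activation: HepG2 cells stably carrying human CAR and a CYP2B6 luciferase reporter; on the % scale 0 is the no-effect control and ±100 the full control effect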
test_parameters: HepG2 hCAR CYP2B6-luciferase, agonist mode, 24 h; series mostly up to 92.4 µM
Inconclusive results are not listed. Active and inactive are the calls of the source. Calls follow the shape of the dose curve; as a rule, active = well fitted activation curve with a large enough effect in the repeat runs; inconclusive = weak or mixed curves; inactive = no such curve, though single readings can be large or run the other way.
Tick one outcome: t (active), f (inactive)

Field: example entries. Status: answers known.
CC(C)(C)c1cc(C(C)(C)C)c(O)c(C(C)(C)C)c1	t
COc1ccc(C(c2ccc(OC)cc2)C(Cl)(Cl)Cl)cc1	t
Cc1ccc(N(SC(F)(Cl)Cl)S(=O)(=O)N(C)C)cc1	f
O=C(c1ccc(Cl)cc1)c1ccc(Cl)cc1	f
COc1cc(OC)c(OC)cc1C=O	f

Hi, do you know how Cc1cc(C)c(C(=O)P(=O)(c2ccccc2)c2ccccc2)c(C)c1 came out in this test?
t

Thanks! And CN1CSC(=S)N(C)C1 ?
f

Thanks! And OC(Cc1ccccc1Cl)(Cn1[nH]cnc1=S)C1(Cl)CC1 (centres undefined) ?
f

Thanks! And Clc1nc(Cl)c(Cl)c(Cl)c1Cl ?
f

###

experimental_details: qHTS assay to identify small molecule antagonists of the retinoic acid receptor (RAR) signaling pathway (AID 1159552; further: nearly all actives have a fitted effect of over 50% in size)
test_parameters: C3RL4 RARE luciferase reporter, retinol-stimulated, 6 h; series mostly up to 92.4 µM
Results filed as inconclusive are left out. Active and inactive are the calls of the source. Calls follow the shape of the dose curve; as a rule, active = well fitted inhibition curve with a large enough effect in the repeat runs; inconclusive = weak or mixed curves, or effect the other way; inactive = no such curve, though single readings can be large or run the other way.
Tick one outcome: 1 (yes) (active), 0 (no) (inactive)

CCc1cccc(C)c1N	0 (no)
C1=CC2C3C=CC(C3)C2C1 (stereo not drawn)	0 (no)
O=[N+]([O-])c1cccc(Cl)c1Cl	0 (no)
Cc1cc(C(C)(C)c2ccc(O)c(C)c2)ccc1O	1 (yes)
Oc1cc(Cl)cc(Cl)c1Cl	1 (yes)
Oc1ccc(Cl)cc1Cc1cc(Cl)ccc1O	1 (yes)
C=CC(=O)OCCCCCCCC(C)C	0 (no)

# input for lookup
Hi, do you know how O=[N+]([O-])c1ccc2ncccc2c1 came out in this test?
0 (no)

###

System: estrogen-related receptor alpha (ERRalpha) with PGC-1alpha coactivator, human
experimental_details: qHTS assay to identify small molecule antagonists of the estrogen related receptor signaling pathway with the pleiotropic PPARgamma coactivator (PGC) (AID 1224821); further: nearly all actives have a fitted effect of over 50% in size; further: potency means the concentration at half of the fitted maximal effect
test_parameters: ERR/PGC reporter cell line, luciferase, antagonist mode; series mostly up to 46.1 µM
Results filed as inconclusive are left out. Active and inactive are the calls of the source. The call rests on the fitted dose curve.
observed_property: Potency

Look over these answered cases.
NC1CCc2cc(O)c(O)cc2C1 (stereo unspecified)	inactive
CN1CCC(c2c[nH]c3ccc(O)cc23)CC1	inactive
C[C@@H]1O[C@@H](O[C@H]2C[C@@H](O)[C@]3(CO)[C@@H]4C(CC[C@]3(O)C2)[C@@]2(O)CC[C@H]([C@@H]3COC(=O)C3)[C@@]2(C)C[C@H]4O)[C@H](O)[C@H](O)[C@H]1O (stereo partly specified)	3.48 µM (active)
CCN(CC)c1ncnc2c1ncn2[C@@H]1O[C@H](COP(=O)(O)OP(=O)(O)C(Br)(Br)P(=O)(O)O)[C@@H](O)[C@H]1O	inactive
NCCc1ccc(S(=O)(=O)F)cc1	inactive

Look up Potency for this compound: CO/C=C(/C(=O)OC)c1ccccc1Oc1cc(Oc2ccccc2C#N)ncn1
8.31 µM (active)

Thanks! And Clc1cc(I)cc(Cl)c1NC1=NCCN1 ?
inactive

###

experimental_details: qHTS assay for small molecule disruptors of the mitochondrial membrane potential (AID 720635)
test_parameters: HepG2 mitochondrial membrane potential, Mito-MPS dye ratio; series mostly up to 83.2 µM
Inconclusive results are not listed. Activity calls are given as the source filed them. Calls follow the shape of the dose curve; as a rule, active = well fitted inhibition curve with a large enough effect in the signal ratio in the repeat runs; inconclusive = weak or mixed curves, or effect the other way; inactive = flat fitted curve, though single readings scatter; the % refers to the signal ratio.
Tick one outcome: active, inactive

Field: example entries. Status: answers known.
CNC(=O)OCC[N+](C)(C)C	inactive
COC(=O)[C@@H]1[C@H]2CC[C@@H](C[C@H]1OC(=O)c1ccccc1)N2C	inactive
CO[C@H]1[C@@H](O)C[C@H](O[C@H]2[C@@H](O)C[C@H](O[C@H]3[C@@H](O)C[C@H](O[C@H]4CC[C@@]5(C)[C@H](CC[C@@H]6[C@@H]5C[C@@H](O)[C@]5(C)[C@@H](C7=CC(=O)OC7)CC[C@]65O)C4)O[C@@H]3C)O[C@@H]2C)O[C@@H]1C	active
CN(C)[C@H](Cc1ccccc1)c1ccccc1	inactive
O=C1CCCCC1CN1CCCCC1 (configuration not stated)	inactive

Hi, do you know how N#CC(C#N)=Cc1cc(O)c(O)c(O)c1 came out in this test?
active

Thanks! And C/C=C(\CC)C(=O)NC(N)=O ?
inactive

Thanks! And CN[C@@H](C)Cc1ccccc1 ?
inactive

Thanks! And O=C(O)/C=C/C(=O)O ?
inactive

Thanks! And C[C@]12CC[C@H]3[C@@H](CCC4=C(O)C(=O)CC[C@@H]43)[C@@H]1CC[C@@H]2OC(=O)CCC1CCCC1 ?
inactive

Thanks! And CCNCC(O)c1cccc(O)c1 (configuration not stated) ?
inactive

Thanks! And C[C@]12C=CC(=O)C=C1CC[C@@H]1[C@@H]2CC[C@]2(C)OC(=O)CC[C@@H]12 ?
inactive
